# Target Or Test System: Polyprotein P1234 (Chikungunya virus (strain S27-African prototype))
# Procedure Details: Secondary cell base assay for inhibitors of NSP2Pro Chikungunya virus (CHIKV) (AID 1964100); note: nearly all actives have a fitted effect of over 70% in size
# Test Context: cell-based CHIKV nsP2 protease reporter assay; series mostly up to 51.1 µM
Some of the results follow. Results filed as inconclusive are left out. Calls of active or inactive are those of the source. Calls come from the whole dose curve.
Outcomes: t = active, f = inactive

[[record]]
molecule = "Oc1ccc(OC2CCCCO2)cc1 (centres undefined)"
assigned_label = "f"

[[record]]
molecule = "Cc1ccc(N[S+](=O)([O-])c2cc3c(cc2N[C@@H](C)CO)NC(=O)CC3)cc1N[C@@H](C)CO"
assigned_label = "f"

[[record]]
molecule = "CCOc1ccc(NC(=O)c2c(NC(=O)Cc3ccccc3)sc3c2CCCCC3)cc1"
assigned_label = "f"

[[record]]
molecule = "CCOc1ccc(NC(=O)c2c(NC(=O)Cc3ccccc3)sc3c2CCC(C)C3)cc1 (centres undefined)"
assigned_label = "f"

[[record]]
molecule = "C[C@@H]1[C@H](O)[C@@H]2OC(=O)C3=C2[C@H](CCC3)[C@@]12C[C@@H](c1ccoc1)OC2=O"
assigned_label = "f"

[[record]]
molecule = "C[C@@H]1O[C@@H](O[C@@H]2[C@@H](O)[C@H](OCCc3ccc(O)c(O)c3)O[C@H](CO[C@@H]3O[C@H](CO)[C@@H](O)[C@H](O)[C@H]3O)[C@H]2OC(=O)/C=C/c2ccc(O)c(O)c2)[C@H](O)[C@H](O)[C@H]1O"
assigned_label = "f"

[[record]]
molecule = "Cc1c(S(=O)(=O)O)oc2c1C(=O)C(=O)c1c-2ccc2c1CCCC2(C)C"
assigned_label = "f"

[[record]]
molecule = "Cn1nnnc1Sc1ncnc2n[nH]c(-c3cccc(S(C)(=O)=O)c3)c12"
assigned_label = "t"

[[record]]
molecule = "C=Cc1c(C)c2cc3nc(cc4[nH]c(cc5nc(cc1[nH]2)C(C)=C5CCC(=O)O)c(CCC(=O)OC)c4C)[C@@]1(C)C3=CC=C(C(=O)OC)[C@H]1C(=O)OC"
assigned_label = "f"


====

# Target Or Test System: Cytochrome P450 3A7 (Homo sapiens) (UniProt P24462)
# Sequence (P24462 whole entry, looked up): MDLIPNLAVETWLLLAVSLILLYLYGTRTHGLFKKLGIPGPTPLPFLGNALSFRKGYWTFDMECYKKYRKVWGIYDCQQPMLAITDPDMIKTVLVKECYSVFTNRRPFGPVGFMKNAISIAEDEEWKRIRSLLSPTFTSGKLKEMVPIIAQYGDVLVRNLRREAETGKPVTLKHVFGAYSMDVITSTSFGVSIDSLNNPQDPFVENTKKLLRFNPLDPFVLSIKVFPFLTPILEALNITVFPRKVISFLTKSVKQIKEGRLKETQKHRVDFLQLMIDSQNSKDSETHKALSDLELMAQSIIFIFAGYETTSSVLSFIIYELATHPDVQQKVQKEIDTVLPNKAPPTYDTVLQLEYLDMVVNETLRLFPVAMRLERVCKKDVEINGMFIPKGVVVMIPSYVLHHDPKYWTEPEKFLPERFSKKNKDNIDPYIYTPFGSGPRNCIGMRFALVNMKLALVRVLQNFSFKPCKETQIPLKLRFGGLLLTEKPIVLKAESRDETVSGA
# Procedure Details: Cytochrome P450 family 3 subfamily A member 7 (CYP3A7) small molecule antagonists: luciferase biochemical qHTS assay (AID 1963596); note: nearly all actives have a fitted effect of over 40% in size
# Test Context: P450-Glo CYP3A7 enzyme luminescence, 1 h; series mostly up to 57.4 µM
Inconclusive results are not listed. The source made the active and inactive calls. Calls come from the whole dose curve; as a rule, active = well fitted inhibition curve with a large enough effect; inconclusive = small, poorly fitted or top-dose-only effect; inactive = no such curve, though single readings can be large or run the other way.
Outcomes: active, inactive

[[record]]
compound = "N[C@@H]1C[C@H]1c1ccccc1"
assigned_label = "inactive"

[[record]]
compound = "C[C@]12CC[C@H]3[C@@H](CC=C4C[C@@H](O)CC[C@@]43C)[C@@H]1CC[C@@H]2O"
assigned_label = "inactive"

[[record]]
compound = "Oc1ccc2c3c1O[C@H]1[C@@H](O)C=C[C@H]4[C@@H](C2)NCC[C@@]341"
assigned_label = "inactive"

[[record]]
compound = "CCC(C(N)=O)N1CCCC1=O (stereo not drawn)"
assigned_label = "inactive"

[[record]]
compound = "Oc1c(Br)cc(Br)cc1Br"
assigned_label = "inactive"

[[record]]
compound = "O=C(Oc1ccc([N+](=O)[O-])cc1)N1CCN(Cc2cccc(Oc3ccccc3)c2)CC1"
assigned_label = "inactive"

[[record]]
compound = "O=S(=O)(c1ccc(Cl)cc1)c1ccc(Cl)cc1"
assigned_label = "active"

[[record]]
compound = "CC(C)NC(C)C"
assigned_label = "inactive"

[[record]]
compound = "CNC(C)Cc1ccccc1OC (stereo not drawn)"
assigned_label = "inactive"

[[record]]
compound = "O=C(CCCCl)c1ccc(F)cc1"
assigned_label = "inactive"

[[record]]
compound = "Cc1sc2c(c1C)C(c1ccc(Cl)cc1)=NC(CC(=O)Nc1ccc(O)cc1)c1nnc(C)n1-2 (stereo not drawn)"
assigned_label = "inactive"

[[record]]
compound = "CNC(=O)NC(O)C(Cl)(Cl)Cl (stereo not drawn)"
assigned_label = "inactive"

[[record]]
compound = "CCC1(CC)C(=O)C=CNC1=O"
assigned_label = "inactive"

[[record]]
compound = "CC(Cc1ccccc1)NCCCCl (stereo not drawn)"
assigned_label = "inactive"

[[record]]
compound = "CC(=O)N(C)c1cccc(-c2ccnc3c(C(=O)c4cccs4)cnn23)c1"
assigned_label = "inactive"

[[record]]
compound = "CCN(CC)N(O)N=O"
assigned_label = "inactive"

[[record]]
compound = "CCCCCn1cc(C(=O)c2cccc3ccccc23)c2ccccc21"
assigned_label = "inactive"

[[record]]
compound = "O=P1(N(CCCl)CCCl)NCCCO1 (stereo not drawn)"
assigned_label = "inactive"

[[record]]
compound = "NCc1cccnc1"
assigned_label = "inactive"

[[record]]
compound = "c1ccc(C2CC2)c(OCC2=NCCN2)c1"
assigned_label = "inactive"

[[record]]
compound = "NN=C(N)N"
assigned_label = "inactive"

[[record]]
compound = "CCN[C@@H](C)Cc1ccccc1"
assigned_label = "inactive"

[[record]]
compound = "CCCCCCCCOC(=O)c1ccccc1C(=O)OCCCCCCCC"
assigned_label = "inactive"

[[record]]
compound = "O=C1c2ccccc2C(=O)c2ccccc21"
assigned_label = "inactive"

[[record]]
compound = "CCC(C)C(C)(COC(N)=O)COC(N)=O (stereo not drawn)"
assigned_label = "inactive"

[[record]]
compound = "CCC1(c2ccccc2)CCC(=O)NC1=O (stereo not drawn)"
assigned_label = "inactive"

[[record]]
compound = "CC(=O)[O][Hg][c]1ccccc1"
assigned_label = "active"

[[record]]
compound = "COc1ccsc1CNCC[C@@]1(c2ccccn2)CCOC2(CCCC2)C1"
assigned_label = "inactive"

